- tested-on: Tyrosine-protein phosphatase non-receptor type 1 (Homo sapiens)
- test-description: Inhibition of recombinant human PTP1B assessed as inhibition of hydrolysis of pNPP at 100 uM by spectrophotometry
The source made the active and inactive calls. No cut-off for these calls is given here.
reported-endpoint: inhibition

> print(dat)
                            compound.string  reported.result
1  COc1ccc(CNc2ccc(CNc3ccc(S(=O)(=O)Nc4nccs4)cc3)cc2)cc1         inactive
2  COc1ccc(C(=O)Nc2ccc(C(=O)N(C)c3ccc(S(=O)(=O)Nc4nccs4)cc3)cc2)cc1            24.6%
3  COC(=O)c1ccc(C(=O)Nc2ccc(C(=O)Nc3ccc(S(=O)(=O)Nc4nccs4)cc3)cc2)cc1         inactive
4  N#Cc1ccc(C(=O)Nc2ccc(C(=O)Nc3ccc(S(=O)(=O)Nc4nccs4)cc3)cc2)cc1            87.1%
5  COc1ccc(C(=O)Nc2ccc(C(=O)Nc3ccc(S(=O)(=O)Nc4nccs4)cc3)c(O)c2)cc1            78.1%

Lookup: inhibition lookup needed for COc1ccc(C(=O)Nc2ccc(S(=O)(=O)Nc3ccc(S(=O)(=O)Nc4nccs4)cc3)cc2)cc1 , thanks.
Found: 45.3%

Lookup: Param item: CN(C(=O)c1ccc(NC(=O)c2ccc(C#N)cc2)cc1)c1ccc(S(=O)(=O)Nc2nccs2)cc1
Found: 23.8%

Lookup: Param item: O=C(O)c1ccc(C(=O)Nc2ccc(C(=O)Nc3ccc(S(=O)(=O)Nc4nccs4)cc3)cc2)cc1
Found: inactive
